Where do the numbers come from? From ChEMBL document CHEMBL5291721.

Experimental Target: Alpha-1A adrenergic receptor (Homo sapiens); also: assay procedure not described here
Sequence (P35348 whole entry): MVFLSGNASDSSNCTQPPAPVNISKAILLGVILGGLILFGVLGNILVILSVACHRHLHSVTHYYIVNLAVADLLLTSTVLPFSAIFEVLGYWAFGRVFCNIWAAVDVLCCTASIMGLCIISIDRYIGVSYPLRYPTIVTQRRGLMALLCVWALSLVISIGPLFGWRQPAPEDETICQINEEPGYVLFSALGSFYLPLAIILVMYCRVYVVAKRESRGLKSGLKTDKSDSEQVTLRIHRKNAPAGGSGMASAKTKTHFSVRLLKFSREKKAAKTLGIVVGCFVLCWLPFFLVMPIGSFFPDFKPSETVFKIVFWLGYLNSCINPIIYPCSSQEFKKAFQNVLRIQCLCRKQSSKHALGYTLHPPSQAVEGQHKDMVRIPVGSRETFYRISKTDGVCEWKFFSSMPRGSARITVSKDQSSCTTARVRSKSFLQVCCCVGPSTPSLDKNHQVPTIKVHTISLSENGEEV
Assay type: functional, cell-based
In this section, each of the compounds is paired with its reported AC50.

Some entries whose results are on file:
{"Compound": "CCC(C(=O)O)c1ccc(CC(C)C)cc1 (stereo not given)", "AC50": "> 30 µM"}
{"Compound": "CS(=O)(=O)c1ccc([C@@H](O)[C@@H](CO)NC(=O)C(Cl)Cl)cc1", "AC50": "> 30 µM"}
{"Compound": "O=C1NCCN1CCN1CCC(c2cn(-c3ccc(F)cc3)c3ccc(Cl)cc23)CC1", "AC50": "> 30 µM"}

Given item CC(C)Cc1ccc(CC(=O)O)cc1 , the value recorded as its AC50 is > 30 µM

Given item OCc1cc([C@@H](O)CNCCCCCCOCCOCc2c(Cl)cccc2Cl)ccc1O , the value recorded as its AC50 is 1.1 µM

---

Experimental Target: 5-hydroxytryptamine receptor 1A (Homo sapiens); also: assay procedure not described here
Sequence (P08908 whole entry): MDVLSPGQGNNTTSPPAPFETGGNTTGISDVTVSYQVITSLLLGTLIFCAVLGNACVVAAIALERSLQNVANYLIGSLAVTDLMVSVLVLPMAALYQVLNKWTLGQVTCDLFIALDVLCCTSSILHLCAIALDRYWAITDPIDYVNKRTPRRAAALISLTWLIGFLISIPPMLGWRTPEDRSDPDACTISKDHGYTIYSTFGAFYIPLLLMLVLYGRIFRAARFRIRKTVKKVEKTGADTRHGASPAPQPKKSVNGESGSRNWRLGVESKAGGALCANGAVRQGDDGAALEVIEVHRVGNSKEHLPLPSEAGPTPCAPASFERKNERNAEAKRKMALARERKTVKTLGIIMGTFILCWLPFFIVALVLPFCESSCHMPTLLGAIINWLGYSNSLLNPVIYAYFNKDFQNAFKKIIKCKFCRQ
Assay type: functional, cell-based
In this section, each of the compounds is paired with its reported AC50.

{"Compound": "CN1CCC2=C(C1)C(c1ccccc1)c1ccccc12 (stereo not given)", "AC50": "> 10 µM"}
{"Compound": "CO/N=C(\\C(=O)N[C@@H]1C(=O)N2C(C(=O)OCOC(=O)C(C)(C)C)=C(C)CS[C@H]12)c1csc(N)n1", "AC50": "> 30 µM"}
{"Compound": "N/N=c1/cc2c(n[nH]1)CCN(C(=O)c1ccccc1)C2", "AC50": "> 30 µM"}

Given item NC(=O)c1ncn([C@@H]2O[C@H](CO)[C@@H](O)[C@H]2O)c1O , the value recorded as its AC50 is > 30 µM

Given item CN1CCCC(n2nc(Cc3ccc(Cl)cc3)c3ccccc3c2=O)CC1 (stereo not given) , the value recorded as its AC50 is > 30 µM

---

In this section, each of the compounds is paired with its reported AC50.
Experimental Target: Bile salt export pump (Homo sapiens); also: assay procedure not described here
Sequence (O95342 whole entry): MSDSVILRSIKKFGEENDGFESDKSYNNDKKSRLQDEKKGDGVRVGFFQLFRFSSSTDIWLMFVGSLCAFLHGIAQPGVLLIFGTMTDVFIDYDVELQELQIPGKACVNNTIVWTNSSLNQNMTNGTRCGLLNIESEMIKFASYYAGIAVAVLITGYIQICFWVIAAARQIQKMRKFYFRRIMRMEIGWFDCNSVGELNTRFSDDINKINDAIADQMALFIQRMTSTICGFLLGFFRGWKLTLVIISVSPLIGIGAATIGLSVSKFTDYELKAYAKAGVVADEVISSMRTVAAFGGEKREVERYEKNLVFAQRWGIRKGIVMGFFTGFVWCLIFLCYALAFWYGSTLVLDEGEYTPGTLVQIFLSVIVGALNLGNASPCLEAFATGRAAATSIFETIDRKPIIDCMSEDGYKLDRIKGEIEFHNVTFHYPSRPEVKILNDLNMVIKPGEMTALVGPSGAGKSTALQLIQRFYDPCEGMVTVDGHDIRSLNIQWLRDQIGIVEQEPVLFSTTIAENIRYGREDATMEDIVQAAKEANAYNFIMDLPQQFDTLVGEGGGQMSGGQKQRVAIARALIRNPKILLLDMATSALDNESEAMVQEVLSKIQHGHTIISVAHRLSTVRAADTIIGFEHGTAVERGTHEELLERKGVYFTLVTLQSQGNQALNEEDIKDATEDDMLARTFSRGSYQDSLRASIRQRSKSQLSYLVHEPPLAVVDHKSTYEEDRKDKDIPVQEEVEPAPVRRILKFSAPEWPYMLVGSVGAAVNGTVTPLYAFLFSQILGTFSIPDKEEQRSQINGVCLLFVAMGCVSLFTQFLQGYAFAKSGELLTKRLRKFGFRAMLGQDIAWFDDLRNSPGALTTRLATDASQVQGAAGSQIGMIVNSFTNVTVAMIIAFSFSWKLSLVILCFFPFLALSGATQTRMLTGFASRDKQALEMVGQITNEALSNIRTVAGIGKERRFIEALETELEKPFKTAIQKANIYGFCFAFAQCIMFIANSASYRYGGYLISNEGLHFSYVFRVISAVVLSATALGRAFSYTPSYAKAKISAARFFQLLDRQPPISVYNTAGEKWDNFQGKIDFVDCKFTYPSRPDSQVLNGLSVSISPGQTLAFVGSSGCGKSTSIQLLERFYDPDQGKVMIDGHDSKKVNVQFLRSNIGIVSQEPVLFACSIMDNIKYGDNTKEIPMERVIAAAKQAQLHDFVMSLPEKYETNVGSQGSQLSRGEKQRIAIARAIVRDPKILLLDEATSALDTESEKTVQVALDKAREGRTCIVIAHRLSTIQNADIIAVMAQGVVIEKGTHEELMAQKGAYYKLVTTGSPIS
Type: functional
Value expressed in µM; do not type the unit.

{"Chem Smiles": "O=C1c2c(O)c(=O)ccn2N([C@@H]2c3ccccc3SCc3c2ccc(F)c3F)[C@@H]2COCCN12", "Value Measured": 24}

Given item COc1ccc2c(c1)C(=O)N(CCc1ccc(S(=O)(=O)NC(=O)NC3CCCCC3)cc1)C(=O)C2(C)C , the value recorded as its AC50 is 1.7

---

Experimental Target: Alpha-2A adrenergic receptor (Homo sapiens, UniProt P08913); also: assay procedure not described here
Sequence (P08913 whole entry): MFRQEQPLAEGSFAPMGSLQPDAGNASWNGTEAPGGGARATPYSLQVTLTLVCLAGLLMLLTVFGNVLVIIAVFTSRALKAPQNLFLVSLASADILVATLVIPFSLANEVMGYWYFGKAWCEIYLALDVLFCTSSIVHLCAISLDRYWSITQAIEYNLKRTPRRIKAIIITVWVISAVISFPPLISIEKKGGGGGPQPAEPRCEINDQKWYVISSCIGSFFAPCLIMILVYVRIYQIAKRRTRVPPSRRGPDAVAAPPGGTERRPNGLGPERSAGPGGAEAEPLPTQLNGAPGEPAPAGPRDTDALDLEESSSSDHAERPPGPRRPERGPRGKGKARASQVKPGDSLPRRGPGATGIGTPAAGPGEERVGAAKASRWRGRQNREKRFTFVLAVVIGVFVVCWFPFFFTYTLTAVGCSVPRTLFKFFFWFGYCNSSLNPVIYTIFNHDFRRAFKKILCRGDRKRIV
Assay type: functional, cell-based
In this section, each of the molecules is paired with its reported AC50.
Value expressed in µM; do not type the unit.

{"Molecule": "CN1CCCC(n2nc(Cc3ccc(Cl)cc3)c3ccccc3c2=O)CC1 (stereo not given)", "AC50 / µM": 0.86}

Please look at the following molecule next.
The molecule Cc1c(Cl)cccc1Nc1ccccc1C(=O)O , when measured on Alpha-2A adrenergic receptor (Homo sapiens, UniProt P08913), yielded AC50 of 20

---

In this section, each of the molecules is paired with its reported AC50.
Experimental Target: UniProtKB P21731
Sequence (P21731 whole entry): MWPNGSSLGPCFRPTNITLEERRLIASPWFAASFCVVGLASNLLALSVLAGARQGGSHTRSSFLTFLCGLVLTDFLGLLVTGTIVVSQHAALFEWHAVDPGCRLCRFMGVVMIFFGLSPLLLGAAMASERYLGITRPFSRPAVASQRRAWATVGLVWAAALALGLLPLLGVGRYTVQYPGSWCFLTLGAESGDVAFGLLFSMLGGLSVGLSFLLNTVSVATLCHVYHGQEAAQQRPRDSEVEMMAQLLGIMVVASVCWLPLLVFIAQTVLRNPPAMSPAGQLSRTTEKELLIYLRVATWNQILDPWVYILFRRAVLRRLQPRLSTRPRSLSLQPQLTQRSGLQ

Some entries whose results are on file:
{"Molecule": "NS(=O)(=O)c1cc(Cl)c(Cl)c(S(N)(=O)=O)c1 [DICHLORPHENAMIDE]", "Recorded Endpoint": "AC50", "Value Measured": "> 10 µM"}
{"Molecule": "Cc1c(Cl)cccc1Nc1ccccc1C(=O)O", "Recorded Endpoint": "AC50", "Value Measured": "> 30 µM"}
{"Molecule": "O=C1NCCN1CCN1CCC(c2cn(-c3ccc(F)cc3)c3ccc(Cl)cc23)CC1", "Recorded Endpoint": "AC50", "Value Measured": "> 30 µM"}
{"Molecule": "Nc1ncnc2c1ncn2[C@@H]1O[C@H](COP(=O)(O)O)[C@@H](O)[C@H]1O [ADENOSINE PHOSPHATE]", "Recorded Endpoint": "AC50", "Value Measured": "> 30 µM"}

The molecule C#CCN(C)[C@H](C)Cc1ccccc1 , when measured on UniProtKB P21731, yielded AC50 of > 10 µM

The molecule COc1ccc2c(c1)C(=O)N(CCc1ccc(S(=O)(=O)NC(=O)NC3CCCCC3)cc1)C(=O)C2(C)C , when measured on UniProtKB P21731, yielded AC50 of 11 µM

The molecule Cc1c(C(=O)Nc2ccc(N3C[C@@H](C)O[C@@H](C)C3)nc2)cccc1-c1ccc(OC(F)(F)F)cc1 , when measured on UniProtKB P21731, yielded AC50 of > 30 µM

The molecule COc1cc(Nc2c(C#N)cnc3cc(OCCCN4CCN(C)CC4)c(OC)cc23)c(Cl)cc1Cl , when measured on UniProtKB P21731, yielded AC50 of > 30 µM

The molecule Cc1ccc(C(=O)c2cc(O)c(O)c([N+](=O)[O-])c2)cc1 , when measured on UniProtKB P21731, yielded AC50 of > 10 µM

---

Endpoint: AC50. System: 5-hydroxytryptamine receptor 2C (Homo sapiens). Items follow. Also: assay procedure not described here.
Sequence (P28335 whole entry): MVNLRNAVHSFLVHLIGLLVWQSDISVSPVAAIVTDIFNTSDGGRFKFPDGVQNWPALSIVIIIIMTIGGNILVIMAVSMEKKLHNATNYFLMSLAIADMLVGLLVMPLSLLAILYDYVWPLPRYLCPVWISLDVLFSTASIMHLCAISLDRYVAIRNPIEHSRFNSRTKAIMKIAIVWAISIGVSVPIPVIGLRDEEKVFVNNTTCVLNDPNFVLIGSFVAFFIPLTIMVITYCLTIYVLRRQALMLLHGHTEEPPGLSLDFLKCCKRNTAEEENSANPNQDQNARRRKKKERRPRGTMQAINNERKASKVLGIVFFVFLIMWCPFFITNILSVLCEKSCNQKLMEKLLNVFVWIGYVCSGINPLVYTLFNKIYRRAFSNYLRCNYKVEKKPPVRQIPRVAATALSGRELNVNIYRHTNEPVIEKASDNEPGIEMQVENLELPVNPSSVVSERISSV

{"Compound": "CCCCCCCCCCCC[N+](C)(C)CCOc1ccccc1 [DOMIPHEN]", "Value Measured": "1.1 µM"}
{"Compound": "O=C(O)CCCc1ccccc1 [PHENYLBUTANOIC ACID]", "Value Measured": "> 30 µM"}
{"Compound": "C#CC1(OC(N)=O)CCCCC1 [ETHINAMATE]", "Value Measured": "> 30 µM"}

Given item COc1c(N2CCNC(C)C2)c(F)cc2c(=O)c(C(=O)O)cn(C3CC3)c12 (stereo not given) [GATIFLOXACIN] , the value recorded as its AC50 is > 30 µM

Given item CCCCCCC(C)(C)c1cc(O)c2c(c1)OC(C)(C)C1CCC(=O)CC21 (stereo not given) [NABILONE] , the value recorded as its AC50 is > 30 µM

---

Endpoint: AC50. System: Gamma-aminobutyric acid receptor subunit alpha-1 (Rattus norvegicus, UniProt P62813). Items follow. Also: assay procedure not described here.
Sequence (P62813 whole entry): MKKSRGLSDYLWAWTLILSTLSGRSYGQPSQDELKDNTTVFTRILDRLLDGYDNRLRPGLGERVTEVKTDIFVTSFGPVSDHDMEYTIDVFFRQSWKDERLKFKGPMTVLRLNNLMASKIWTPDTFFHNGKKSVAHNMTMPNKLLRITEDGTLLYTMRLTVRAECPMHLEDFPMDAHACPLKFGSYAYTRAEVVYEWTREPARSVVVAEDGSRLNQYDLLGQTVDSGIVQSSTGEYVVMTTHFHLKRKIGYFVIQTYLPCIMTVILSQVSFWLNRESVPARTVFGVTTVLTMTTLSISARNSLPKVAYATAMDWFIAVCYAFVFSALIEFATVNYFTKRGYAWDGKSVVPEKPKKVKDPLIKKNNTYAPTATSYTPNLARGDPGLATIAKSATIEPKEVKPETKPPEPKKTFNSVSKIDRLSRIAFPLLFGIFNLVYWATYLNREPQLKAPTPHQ

{"Chem Smiles": "CO/N=C(\\C(=O)N[C@@H]1C(=O)N2C(C(=O)[O-])=C(C[N+]3(C)CCCC3)CS[C@H]12)c1csc(N)n1", "Recorded Endpoint": "AC50", "Value Measured": "> 30 µM"}

Given item C[C@@H]1O[C@@H]1P(=O)(O)O , the value recorded as its AC50 is > 10 µM

Given item C#C[C@]1(O)CC[C@H]2[C@@H]3CCC4=CCCC[C@@H]4[C@H]3CC[C@@]21C , the value recorded as its AC50 is > 30 µM

Given item CC[C@]1(O)C[C@@H]2CN(CCc3c([nH]c4ccccc34)[C@@](C(=O)OC)(c3cc4c(cc3OC)N(C)[C@H]3[C@@](O)(C(N)=O)[C@H](O)[C@]5(CC)C=CCN6CC[C@]43[C@@H]65)C2)C1 , the value recorded as its AC50 is > 30 µM

Given item CC(C)(C(=O)c1cccnc1)c1cccnc1 , the value recorded as its AC50 is > 10 µM

Given item C[C@H]1C[C@@H]2[C@H]([C@@H](O)C[C@@]3(C)[C@H]2CC[C@]3(O)C(=O)CO)[C@@]2(C)C=CC(=O)C=C12 , the value recorded as its AC50 is > 10 µM

Given item CN(C)CCCN1c2ccccc2Sc2ccccc21 , the value recorded as its AC50 is > 10 µM
